# label = true (1) if melting point >= 60 °C else false (0)

{"molecule": "Oc1ccc2cccnc2c1", "class": "true (1)"}
{"molecule": "CCOc1cc(C(C)(C)C)ccc1C1COC(c2c(F)cccc2F)=N1 (stereo unspecified)", "class": "true (1)"}
{"molecule": "CNC(=O)ON=C(SC)C(=O)N(C)C", "class": "true (1)"}
{"molecule": "CCCCCCN", "class": "false (0)"}
{"molecule": "CCC(C(=O)O)c1ccc(CC(C)C)cc1 (stereo unspecified)", "class": "false (0)"}
{"molecule": "CCCCCCn1c(=O)c2c(ncn2C)n(C)c1=O", "class": "true (1)"}
{"molecule": "CC1=CC(=O)C(C(C)C)=CC1=O", "class": "false (0)"}
{"molecule": "CC1=CC(=O)c2c(O)cccc2C1=O", "class": "true (1)"}
{"molecule": "Clc1cc(Cl)c2ccccc2c1", "class": "true (1)"}
{"molecule": "Nc1c([N+](=O)[O-])cc(Cl)cc1[N+](=O)[O-]", "class": "true (1)"}
{"molecule": "CC(=O)CC(=O)C(=O)O", "class": "true (1)"}
{"molecule": "CCCCC[C@@H](O)CC", "class": "false (0)"}
{"molecule": "O=C1NCc2ccccc21", "class": "true (1)"}
{"molecule": "CCCCCCCC#N", "class": "false (0)"}
{"molecule": "Oc1c2ccccc2cc2ccccc12", "class": "true (1)"}
{"molecule": "CCCCCCCCCCCCCCCCCC(=O)OC(=O)CCCCCCCCCCCCCCCCC", "class": "true (1)"}
{"molecule": "CCC=CCC", "class": "false (0)"}
{"molecule": "CCCCc1ccccc1O", "class": "false (0)"}
{"molecule": "C=C[C@@]1(C)CC[C@H]2C(=CC[C@@H]3[C@]2(C)CCC[C@@]3(C)C(=O)O)C1", "class": "true (1)"}
{"molecule": "CC(C)[C@@H]1CC[C@@H](C)CC1=O", "class": "false (0)"}
{"molecule": "C=C1C(=O)OC2[C@H]1CC[C@H](C)[C@@H]1C=CC(=O)[C@@]21C (stereo partly specified)", "class": "true (1)"}
{"molecule": "O=C(O)c1ccccc1[N+](=O)[O-]", "class": "true (1)"}
{"molecule": "O=C(O)c1ccoc1", "class": "true (1)"}
{"molecule": "COc1cc(C(=O)OCCCN(C)CCN(C)CCCOC(=O)c2cc(OC)c(OC)c(OC)c2)cc(OC)c1OC", "class": "true (1)"}
{"molecule": "N#C/C(=N\\OCC1OCCO1)c1ccccc1", "class": "true (1)"}
{"molecule": "c1ccc(Cc2ccc3ccccc3c2)cc1", "class": "false (0)"}
{"molecule": "NS(=O)(=O)c1cc2c(s1)S(=O)(=O)CCC2=O", "class": "true (1)"}
{"molecule": "O=C(O)CCC(=O)C(=O)O", "class": "true (1)"}
{"molecule": "CCC(Br)(CC)C(=O)NC(N)=O", "class": "true (1)"}
{"molecule": "CC(C)(C)C1=CC(=O)C=C(C(C)(C)C)C1=O", "class": "true (1)"}
{"molecule": "O=c1cc(O)c2ccccc2o1", "class": "true (1)"}
{"molecule": "Fc1ccc(F)c(F)c1F", "class": "false (0)"}
{"molecule": "Cl.Nc1ccccc1", "class": "true (1)"}
{"molecule": "c1ccc(C(c2ccccc2)(c2ccccc2)c2ccccc2)cc1", "class": "true (1)"}
{"molecule": "COP(=S)(OC)Oc1cc(Cl)c(I)cc1Cl", "class": "true (1)"}
{"molecule": "CN1CCC(CCCC2CCN(C)CC2)CC1", "class": "false (0)"}
{"molecule": "ON=Cc1ccccc1O", "class": "false (0)"}
{"molecule": "Cc1cc(Cl)ccc1O", "class": "false (0)"}
{"molecule": "O=C(O)CC(O)(CC(=O)O)C(=O)O", "class": "true (1)"}
{"molecule": "Nc1ccccc1-c1ccccc1", "class": "false (0)"}
{"molecule": "O=[N+]([O-])c1cc(F)cc(F)c1", "class": "false (0)"}
{"molecule": "CCCCC(=O)OCC", "class": "false (0)"}
{"molecule": "c1ccc2c(c1)CCO2", "class": "false (0)"}
{"molecule": "O=[N+]([O-])OC(CO)CO", "class": "false (0)"}
{"molecule": "Nc1ccc(S(=O)(=O)c2ccc(NCC(=O)O)cc2)cc1", "class": "true (1)"}
{"molecule": "O=C(O)c1ccc2ccccc2c1", "class": "true (1)"}
{"molecule": "COc1cc(C(=O)O)cc(OC)c1OC", "class": "true (1)"}
{"molecule": "O=C(O)CC=Cc1ccccc1", "class": "true (1)"}
{"molecule": "CC(=O)CC(=O)Nc1ccccc1", "class": "true (1)"}
{"molecule": "CC(C)(C)SC(C)(C)C", "class": "false (0)"}
{"molecule": "O=[N+]([O-])c1cccc(-c2ccccc2)c1", "class": "true (1)"}
{"molecule": "Cl.NCCc1ccc(O)cc1", "class": "true (1)"}
{"molecule": "Cc1ccc2c(C)cccc2c1C", "class": "false (0)"}
{"molecule": "Brc1c(Br)c(Br)c(Oc2c(Br)c(Br)c(Br)c(Br)c2Br)c(Br)c1Br", "class": "true (1)"}
{"molecule": "O=C(O)c1c(F)cccc1F", "class": "true (1)"}
{"molecule": "CC(=O)CCC(C)=O", "class": "false (0)"}
{"molecule": "CCOC(=O)NP(=O)(N1CC1)N1CC1", "class": "true (1)"}
{"molecule": "CCCNC(=O)NCCC", "class": "true (1)"}
{"molecule": "COc1c(C)c2c(c(O)c1C/C=C(\\C)CCC(=O)O)C(=O)OC2", "class": "true (1)"}
{"molecule": "Cc1ccccc1F", "class": "false (0)"}

====

Entries and their measured melting point follow.
valueType: melting point (°C)

{"compound": "O=C(Nc1ncc([N+](=O)[O-])s1)c1cccs1", "valueType": "melting point", "reportedResult": 256}
{"compound": "O=S(=O)(Oc1ccc(Cl)cc1)c1ccc(Cl)cc1", "valueType": "melting point", "reportedResult": 86.5}
{"compound": "COc1cc2c(c(O)c1OC)CNCC2", "valueType": "melting point", "reportedResult": 188}
{"compound": "Nc1nccs1", "valueType": "melting point", "reportedResult": 93}
{"compound": "CCCCCCCCCCCCCCCCCCCCCCCCCCCC", "valueType": "melting point", "reportedResult": 64.5}
{"compound": "Oc1cc(O)cc(-c2cc(O)cc(O)c2)c1", "valueType": "melting point", "reportedResult": 310}
{"compound": "CCC(C)I (stereo unspecified)", "valueType": "melting point", "reportedResult": -104}
{"compound": "CCON=C(CC)C1=C(O)CC(c2c(C)cc(C)cc2C)CC1=O (stereo unspecified)", "valueType": "melting point", "reportedResult": 106}
{"compound": "c1ccc(CSSCc2ccccc2)cc1", "valueType": "melting point", "reportedResult": 71.5}
{"compound": "CC1=C(/C=C/C(C)=C/C=C/C(C)=C/CO)C(C)(C)CCC1", "valueType": "melting point", "reportedResult": 63.5}
{"compound": "CCn1cc(C(=O)O)c(=O)c2cc(F)c(N3CCNC(C)C3)c(F)c21 (stereo unspecified)", "valueType": "melting point", "reportedResult": 240}
{"compound": "COc1cc(C=O)cc(OC)c1O", "valueType": "melting point", "reportedResult": 113}
{"compound": "CCCC(=O)C1=C(O)C(C)(C)C(O)=C(Cc2c(O)c(C)c(O)c(C(=O)CCC)c2O)C1=O", "valueType": "melting point", "reportedResult": 156}
{"compound": "CCC1CCCCN1C(=O)COC(=O)c1ccccc1 (stereo unspecified)", "valueType": "melting point", "reportedResult": 54.5}
{"compound": "CCCCCCCCCN", "valueType": "melting point", "reportedResult": -1}
{"compound": "CC(C)CCOc1ccc(NC(=S)Nc2ccc(OCCC(C)C)cc2)cc1", "valueType": "melting point", "reportedResult": 146}
{"compound": "S=C(c1ccccc1)c1ccccc1", "valueType": "melting point", "reportedResult": 53.5}
{"compound": "O=c1cccccc1", "valueType": "melting point", "reportedResult": -7}
{"compound": "O=P(O)(O)OCC(O)CO (stereo unspecified)", "valueType": "melting point", "reportedResult": -25}
{"compound": "OC[C@H]1O[C@@](CO)(O[C@H]2O[C@H](CO)[C@@H](O)[C@H](O)[C@H]2O)[C@@H](O)[C@@H]1O", "valueType": "melting point", "reportedResult": 186}
{"compound": "O=Cc1ccccc1Br", "valueType": "melting point", "reportedResult": 21.5}
{"compound": "Cc1cnc2c(C(=O)O)c(Cl)ccc2c1", "valueType": "melting point", "reportedResult": 244}
{"compound": "O=Cc1ccc(O)cc1O", "valueType": "melting point", "reportedResult": 135}
{"compound": "CCCCOC(=O)CCC(=O)O", "valueType": "melting point", "reportedResult": 8.6}
{"compound": "CCCSc1ccccc1", "valueType": "melting point", "reportedResult": -45}
{"compound": "C1CCN2C[C@@H]3C[C@@H](CN4CCCC[C@@H]34)[C@H]2C1", "valueType": "melting point", "reportedResult": 30.5}
{"compound": "CCCCc1c(C)nc(NCC)nc1O", "valueType": "melting point", "reportedResult": 160}
{"compound": "CCCCCC1=CCCC1", "valueType": "melting point", "reportedResult": -83}
{"compound": "CC1=C(/C=C/C(C)=C/C=C/C(C)=C/C=C/C=C(C)/C=C/C=C(C)/C=C/C2=C(C)C(=O)C(O)CC2(C)C)C(C)(C)CC(O)C1=O (stereo unspecified)", "valueType": "melting point", "reportedResult": 182}
{"compound": "Nc1cccc2cccc(N)c12", "valueType": "melting point", "reportedResult": 66.5}
{"compound": "O=C1c2ccccc2C(=O)N1CCBr", "valueType": "melting point", "reportedResult": 82.5}
{"compound": "c1ccc2cc(Oc3ccc4ccccc4c3)ccc2c1", "valueType": "melting point", "reportedResult": 105}
{"compound": "ClCc1ccc(Br)cc1", "valueType": "melting point", "reportedResult": 50}
{"compound": "Clc1ccccn1", "valueType": "melting point", "reportedResult": -46.5}
{"compound": "Cc1ccc([N+](=O)[O-])cc1N", "valueType": "melting point", "reportedResult": 106}
{"compound": "Cc1cc(Cl)c(O)c(Cl)c1", "valueType": "melting point", "reportedResult": 39}
{"compound": "Cc1ccccc1C(C)C", "valueType": "melting point", "reportedResult": -71.5}
{"compound": "Nc1ccccc1Br", "valueType": "melting point", "reportedResult": 32}
{"compound": "CC(C)NCCCC1(C(N)=O)c2ccccc2-c2ccccc21", "valueType": "melting point", "reportedResult": 94.5}
{"compound": "C=CCc1ccccc1", "valueType": "melting point", "reportedResult": -40}
{"compound": "Cc1cc2ccccc2cc1C", "valueType": "melting point", "reportedResult": 105}
{"compound": "CCCCCCCCCCCCCCCCCCN=C=O", "valueType": "melting point", "reportedResult": 20}
{"compound": "Cc1nccc2c1[nH]c1ccccc12", "valueType": "melting point", "reportedResult": 236}
{"compound": "ClC(Cl)=CBr", "valueType": "melting point", "reportedResult": -88.5}
{"compound": "CCCCC(=O)c1ccc(C)cc1", "valueType": "melting point", "reportedResult": -2}
{"compound": "O=C(O)c1cc(Cl)ccc1Cl", "valueType": "melting point", "reportedResult": 154}
{"compound": "COc1ccc(CCl)cc1", "valueType": "melting point", "reportedResult": 24.5}
{"compound": "CC[C@H]1CN2CC[C@]3(C(=O)Nc4ccccc43)[C@@H]2C[C@@H]1/C(=C\\OC)C(=O)OC", "valueType": "melting point", "reportedResult": 216}
{"compound": "COc1ccc(N)cc1", "valueType": "melting point", "reportedResult": 57.2}
{"compound": "Cc1cc(Cl)c(Cl)cc1Cl", "valueType": "melting point", "reportedResult": 82.4}
{"compound": "CCCCC(O)(CCCC)CCCC", "valueType": "melting point", "reportedResult": 20}
{"compound": "C=C(C)C(=O)CC", "valueType": "melting point", "reportedResult": -69.5}
{"compound": "Cc1cccc(C)c1C", "valueType": "melting point", "reportedResult": -25.4}
{"compound": "CC(C)CCCCCCCOC(=O)c1ccccc1C(=O)OCCCCCCCC(C)C", "valueType": "melting point", "reportedResult": -45.6}
{"compound": "CCCCCCCOO", "valueType": "melting point", "reportedResult": 35.5}
{"compound": "CN1Cc2c(N)cccc2C(c2ccccc2)C1 (stereo unspecified)", "valueType": "melting point", "reportedResult": 180}
{"compound": "FCC(F)F", "valueType": "melting point", "reportedResult": -84}
{"compound": "COc1ccc(N)c(C)c1", "valueType": "melting point", "reportedResult": 29.5}
{"compound": "CC(C)C(Br)C(=O)NC(N)=O (stereo unspecified)", "valueType": "melting point", "reportedResult": 154}
{"compound": "CCCCCOC=O", "valueType": "melting point", "reportedResult": -73.5}
{"compound": "O=CC=Cc1ccccc1", "valueType": "melting point", "reportedResult": -7.5}
